Reference for the values: ChEMBL document CHEMBL4689842

Tested on: Fibroblast
Measurement Notes: Multiplex assay against human fibroblast
Assay type: toxicity, cell-based
Measurement Conditions: 12 h, 10 µM, compound concentration 10 uM, replicate 2
Measured Metric: Population Healthy Nuclei (%)
Reply with just the number (in %).

A selection of reference data follows.
Compound	Target	Measurement Units	Population Healthy Nuclei (%)
C=CCn1c(=O)c2cnc(Nc3ccc(N4CCN(C)CC4)cc3)nc2n1-c1cccc(C(C)(C)O)n1	Fibroblast	%	36
COc1ccc(-c2ccc3c(N4CCOCC4)nc(N4C[C@@H](C)O[C@@H](C)C4)nc3n2)cc1CO	Fibroblast	%	17
O=C(Nc1ccc(Cl)cc1)Nc1cccc(-c2cccc(N3CCCC3)n2)c1	Fibroblast	%	78
Cl.O=c1c2cccn2c2ccccc2n1CCCN1CCC(c2ccc(Cl)cc2)CC1	Fibroblast	%	57
CNC(=O)c1ccc(Nc2nc(OC3CCCC3)c3c(-c4ccc5nc(C)oc5c4)c[nH]c3n2)c(OC)c1	Fibroblast	%	27
O=C(Nc1cccnn1)N1CCC(=Cc2cccc(Oc3ccc(C(F)(F)F)cn3)c2)CC1	Fibroblast	%	37
Cl.Oc1ccc2c3c1O[C@H]1c4[nH]c5c(c4C[C@@]4(O)[C@@H](C2)N(CC2CC2)CC[C@]314)C[C@@]1(O)[C@H]2Cc3ccc(O)c4c3[C@@]1(CCN2CC1CC1)[C@H]5O4	Fibroblast	%	48
CCOc1cc2ncc(C#N)c(Nc3ccc(OCc4ccccn4)c(Cl)c3)c2cc1NC(=O)/C=C/CN(C)C	Fibroblast	%	50

Lab book: Population Healthy Nuclei (%) of `CCCn1c(=O)c2[nH]c(-c3cnn(Cc4cccc(C(F)(F)F)c4)c3)nc2n(CC)c1=O` noted as 77

Lab book: Population Healthy Nuclei (%) of `COc1cccc2cc(-c3nc([C@H]4CC[C@H](C(=O)O)CC4)n4ncnc(N)c34)[nH]c12` noted as 26

Lab book: Population Healthy Nuclei (%) of `CCCS(=O)(=O)Nc1ccc(F)c(C(=O)c2c[nH]c3ncc(Cl)cc23)c1F` noted as 26

Lab book: Population Healthy Nuclei (%) of `C=C1/C(=C\C=C2/CCC[C@]3(C)[C@@H]([C@H](C)/C=C/[C@H](C)C(C)C)CC[C@@H]23)C[C@@H](O)C[C@@H]1O` noted as 67
